molecular target: PCP recognition sites; experiment: [3H]TCP Radioreceptor Assay (internal screen); assay type: binding, rat (male Sprague-Dawley; conditions: rat whole brain membranes; ~1 nM [3H]TCP; room temperature, 25 min
Labelling: Ki reported below 50 nM becomes Condition met; at or above becomes Condition not met.

Worked set:
{"compound": "CCOC1(OCC)C2c3c(OC(C)C)cccc3C([n+]3ccccc32)C1(C)C (centres unmarked)", "studySystem": "PCP recognition sites", "class": "Condition met"}
{"compound": "CCN(CC)C1C2c3ccccc3C([n+]3ccccc32)C1(C)C (centres unmarked)", "studySystem": "PCP recognition sites", "class": "Condition not met"}
{"compound": "CCOC1(OCC)C2c3c(Br)cccc3C([n+]3ccccc32)C1(C)C (centres unmarked)", "studySystem": "PCP recognition sites", "class": "Condition not met"}

Qu. Is it true that Ki reported for CCOC1(OCC)C2(C)c3ccccc3C([n+]3ccccc32)C1(C)C.[O-][Cl+3]([O-])([O-])[O-] (centres unmarked) is less than 50 nM?
Ans. Condition met

Qu. hey, is Ki for CCOC1(OCC)C2c3c(Br)cccc3C([n+]3ccccc32)C1(C)C.[O-][Cl+3]([O-])([O-])[O-] (centres unmarked) lower than 50 nM or not?
Ans. Condition not met

Qu. Determine if CCOC1(OCC)C2c3cc(OC)ccc3C([n+]3ccccc32)C1(C)C (single isomer, unassigned) [20(c)] shows Ki strictly lower than 50 nM.
Ans. Condition met

Qu. Criterion: Ki strictly below 50 nM. Is it met by CCOC1(OCC)C2c3ccccc3C([n+]3ccccc32)C1(CC)CC (centres unmarked) ?
Ans. Condition met

Qu. Take the compound CCOC1(OCC)C2c3ccc(OC)cc3C([n+]3ccccc32)C1(C)C (centres unmarked) and say whether its Ki is less than 50 nM.
Ans. Condition not met
